Examples of molecules with documented inhibition at 0.5 h, 50 µM follow.
target: RNA-N7 MTase (mRNA cap guanine-N(7) methyltransferase) (Homo sapiens); test: Inhibition of N-terminal His6-tagged human RNA-N7 MTase expressed in Escherichia coli using GpppAC4 and [3H]SAM as substrate at 50 uM preincubated with enzyme followed by substrate addition and measured after 30 mins by filter binding assay; conditions: probe GpppAC4 and [3H]SAM
Sequence (O43148 whole entry): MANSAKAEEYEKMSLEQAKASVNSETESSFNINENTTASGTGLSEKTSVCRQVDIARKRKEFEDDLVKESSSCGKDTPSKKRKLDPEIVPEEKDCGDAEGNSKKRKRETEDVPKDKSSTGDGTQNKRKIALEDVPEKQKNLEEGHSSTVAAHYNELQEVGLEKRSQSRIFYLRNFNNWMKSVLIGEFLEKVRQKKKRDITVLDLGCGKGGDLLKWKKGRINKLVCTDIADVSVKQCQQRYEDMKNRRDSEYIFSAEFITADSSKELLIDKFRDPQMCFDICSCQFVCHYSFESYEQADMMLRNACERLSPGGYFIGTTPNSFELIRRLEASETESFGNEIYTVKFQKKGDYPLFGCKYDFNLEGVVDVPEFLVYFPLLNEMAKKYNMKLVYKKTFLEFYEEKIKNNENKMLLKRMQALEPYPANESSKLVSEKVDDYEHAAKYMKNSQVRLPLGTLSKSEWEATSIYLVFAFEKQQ
Just the number in %, nothing appended.

Before answering, review these 10 worked examples.
MOLECULE	OUTPUT UNIT	inhibition at 0.5 h, 50 µM
COC(=O)CCCN(CCO[C@@H]1[C@H](O)[C@@H](CO)O[C@H]1n1cnc2c(N)ncnc21)C[C@H]1O[C@@H](n2cnc3c(N)ncnc32)[C@H](O)[C@@H]1O	%	32.8
Nc1ncnc2c1ncn2[C@@H]1O[C@H](CNCCO[C@@H]2[C@H](O)[C@@H](CO)O[C@H]2n2cnc3c(N)ncnc32)[C@@H](O)[C@H]1O	%	35.2
Nc1ncnc2c1ncn2[C@@H]1OC(CN(CCO[C@@H]2[C@H](O)C(CO)O[C@H]2n2cnc3c(N)ncnc32)S(=O)(=O)c2ccc(C(F)(F)F)cc2[N+](=O)[O-])[C@@H](O)[C@H]1O (single isomer, unassigned)	%	23.3
COc1ccc(S(=O)(=O)N(CCO[C@@H]2[C@H](O)C(CO)O[C@H]2n2cnc3c(N)ncnc32)CC2O[C@@H](n3cnc4c(N)ncnc43)[C@H](O)[C@@H]2O)c([N+](=O)[O-])c1 (single isomer, unassigned)	%	31.8
Nc1ncnc2c1ncn2[C@@H]1OC(CN(CCO[C@@H]2[C@H](O)C(CO)O[C@H]2n2cnc3c(N)ncnc32)Cc2ccc(Cl)cc2)[C@@H](O)[C@H]1O (single isomer, unassigned)	%	14.7
Nc1ncnc2c1ncn2[C@@H]1O[C@H](C[C@@H](N)CC[C@H](N)C(=O)O)[C@@H](O)[C@H]1O	%	99.8
Nc1ncnc2c1ncn2[C@@H]1OC(CN(CCCc2ccccc2)CCO[C@@H]2[C@H](O)C(CO)O[C@H]2n2cnc3c(N)ncnc32)[C@@H](O)[C@H]1O (single isomer, unassigned)	%	23.1
Nc1ncnc2c1ncn2[C@@H]1OC(CN(CCO[C@@H]2[C@H](O)C(CO)O[C@H]2n2cnc3c(N)ncnc32)S(=O)(=O)c2ccc(Cl)cc2)[C@@H](O)[C@H]1O (single isomer, unassigned)	%	20.2
COC(=O)[C@@H](N)CCN(CCO[C@@H]1[C@H](O)[C@@H](CO)O[C@H]1n1cnc2c(N)ncnc21)C[C@H]1O[C@@H](n2cnc3c(N)ncnc32)[C@H](O)[C@@H]1O	%	33.2
COc1cc([N+](=O)[O-])ccc1S(=O)(=O)N(CCO[C@@H]1[C@H](O)C(CO)O[C@H]1n1cnc2c(N)ncnc21)CC1O[C@@H](n2cnc3c(N)ncnc32)[C@H](O)[C@@H]1O (single isomer, unassigned)	%	44.2

The value of inhibition at 0.5 h, 50 µM measured for the molecule Nc1ncnc2c1ncn2[C@@H]1OC(CN(CCO[C@@H]2[C@H](O)C(CO)O[C@H]2n2cnc3c(N)ncnc32)S(=O)(=O)c2ccc([N+](=O)[O-])cc2)[C@@H](O)[C@H]1O (single isomer, unassigned) turned out to be 66

The value of inhibition at 0.5 h, 50 µM measured for the molecule CCCCN(CCO[C@@H]1[C@H](O)[C@@H](CO)O[C@H]1n1cnc2c(N)ncnc21)C[C@H]1O[C@@H](n2cnc3c(N)ncnc32)[C@H](O)[C@@H]1O turned out to be 27.5

The value of inhibition at 0.5 h, 50 µM measured for the molecule Nc1ncnc2c1ncn2[C@@H]1O[C@H](CN(CCO[C@@H]2[C@H](O)[C@@H](CO)O[C@H]2n2cnc3c(N)ncnc32)CC[C@H](N)C(=O)O)[C@@H](O)[C@H]1O turned out to be 77.4

The value of inhibition at 0.5 h, 50 µM measured for the molecule Nc1ncnc2c1ncn2[C@@H]1OC(CN(CCO[C@@H]2[C@H](O)C(CO)O[C@H]2n2cnc3c(N)ncnc32)S(=O)(=O)c2ccc(Cl)c([N+](=O)[O-])c2)[C@@H](O)[C@H]1O (single isomer, unassigned) turned out to be 33.9

The value of inhibition at 0.5 h, 50 µM measured for the molecule NC(=O)[C@@H](N)CCN(CCO[C@@H]1[C@H](O)[C@@H](CO)O[C@H]1n1cnc2c(N)ncnc21)C[C@H]1O[C@@H](n2cnc3c(N)ncnc32)[C@H](O)[C@@H]1O turned out to be 12.2
